Each recorded value in this set is attributed to patent US20120277143A1.

Target: T1, human IL4 (human, UniProt P05112 25-153, biotinylated in the SPR and competition assays (sites not given))
T1 construct: Peprotech #200-04, mature protein produced in E. coli; also called hIL4; Interleukin 4
T1 sequence: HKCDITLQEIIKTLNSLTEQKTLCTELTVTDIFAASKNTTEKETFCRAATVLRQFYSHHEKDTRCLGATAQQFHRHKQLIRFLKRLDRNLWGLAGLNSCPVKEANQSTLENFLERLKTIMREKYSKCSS
Test: IL4R binding inhibition; repeats Table 17
TEST_READOUT: IC50 (nM)
// units = nM; emit number, no label

// worked examples, IC50 included
| BINDER | U | REPORTED_MEASUREMENT |
| --- | --- | --- |
| C06_28E5_V1_C01_6G9_V1 (designed binder, bispecific IL4/IL13 ankyrin repeat protein with (GGGGS)4 linker; also called bispecific AR protein) DLGKKLLEAARAGQDDEVRILMANGADVNAADDSGITPLHLAAEDGHLEIVEVLLKAGADVNAQDNLGDTPLHLAAWTGHLEIVEVLLKAGADVNAYDISGITPLHLAAFYGHLEIVEVLLKHGADVNAQDKFGKTAFDISIDNGNEDLAEILQKLNGGGGSGGGGSGGGGSGGGGSDLDKKLLEAARAGQDDEVRILMANGADVNARDSYGSTPLHLAAREGHLEIVEVLLKYGADVNAADFIGDTPLHLAAYRGHLEIVEVLLKYGADVNASDITGETPLHLAAQIGHLEIVEVLLKHGADVNAQDKFGKTAFDISIDNGNEDLAEILQKLN | nM | 0.025 |
| C06_44C12_V2_C01_6G9_V1 (designed binder, bispecific IL4/IL13 ankyrin repeat protein with (GGGGS)4 linker; also called bispecific AR protein) DLGKKLLEAASAGQDDEVHILMANGADVNALDDSGYTPLHLAAEDGHLEIVEVLLKHGADVNAADRLGDTPLHLAAFVGHLEIVEVLLKAGADVNAVDLAGVTPLHVAAFYGHLEIVEVLLKAGADVNAQDKFGKTAFDISIDNGNEDLAEILQKLNGGGGSGGGGSGGGGSGGGGSDLDKKLLEAARAGQDDEVRILMANGADVNARDSYGSTPLHLAAREGHLEIVEVLLKYGADVNAADFIGDTPLHLAAYRGHLEIVEVLLKYGADVNASDITGETPLHLAAQIGHLEIVEVLLKHGADVNAQDKFGKTAFDISIDNGNEDLAEILQKLN | nM | 0.017 |

Proceed to the following item.
[Q] Entry C01_6G9_V1_C06_53G6_V1 (designed binder, bispecific IL13/IL4 ankyrin repeat protein with (GGGGS)4 linker; also called bispecific AR protein) DLDKKLLEAARAGQDDEVRILMANGADVNARDSYGSTPLHLAAREGHLEIVEVLLKYGADVNAADFIGDTPLHLAAYRGHLEIVEVLLKYGADVNASDITGETPLHLAAQIGHLEIVEVLLKHGADVNAQDKFGKTAFDISIDNGNEDLAEILQKLNGGGGSGGGGSGGGGSGGGGSDLGKKLLEAARAGQDDEVRILMANGADVNATDDWGDTLLHLAATDGHLEIVEVLLKAGADVNANDAIGDTPLHLAALYGHLEIVEVLLKYGADVNATDLHGFTPLHLAAFWGHLEIVEVLLKHGADVNAQDKFGKTAFDISIDNGNEDLAEILQKLN needs its IC50 filled in; supply it.
[A] 0.015
